B1: library; numbered along this chain (parent)
chain: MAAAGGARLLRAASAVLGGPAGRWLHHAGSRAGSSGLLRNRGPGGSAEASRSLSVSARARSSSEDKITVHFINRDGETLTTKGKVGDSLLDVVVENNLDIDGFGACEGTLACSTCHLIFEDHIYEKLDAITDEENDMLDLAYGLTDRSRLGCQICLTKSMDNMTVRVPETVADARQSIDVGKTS

variants of: B1; test: scaled log2 fold change in cell abundance, elesclomol vs control (0 = silent mean, 1 = nonsense mean) (scaled log2 ratio); higher = higher viability under elesclomol (loss of FDX1 cuproptosis function); conditions: with HEK293T FDX1 KO; elesclomol 40 nM; glucose 10 mM; 11 days;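 also: variant abundance is its share of total variant reads in each endpoint sample, from next-generation sequencing of the integrated ORF PCR-amplified out of genomic DNA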
Each entry gets not met if its scaled log2 fold change stays under 0.5, and met if its scaled log2 fold change is 0.5 or above.

Reference set, count: 6
mutant designation: V93S
class assignment: not met

mutant designation: S184I
class assignment: not met

mutant designation: G5Y
class assignment: not met

mutant designation: N162A
class assignment: met

mutant designation: C115V
class assignment: met

mutant designation: L144M
class assignment: not met

Is the recorded value of scaled log2 fold change equal to or greater than 0.5 for this variant? H116S
not met

Is the recorded value of scaled log2 fold change equal to or greater than 0.5 for this variant? I118K
not met

Is the recorded value of scaled log2 fold change equal to or greater than 0.5 for this variant? H116Y
met

Just for reference, the supplement of paper PMC12855868 is where these values come from.
